- protocol.notes: qHTS assay for small molecules that induce genotoxicity in human embryonic kidney cells expressing luciferase-tagged ATAD5 - cell viability (AID 651634); note: nearly all actives have a fitted effect of over 25% in size
- condition.summary: HEK293T ATAD5-luc cells viability, CellTiter-Fluor, 15.5 h; series mostly up to 83.3 µM
Results filed as inconclusive are left out. Calls of active or inactive are those of the source. Calls come from the whole dose curve.
Outcome codes: yes (active), no (inactive)

{"compound": "O=C(O)c1cc(-c2ccc(F)cc2F)ccc1O", "class.name": "no"}
{"compound": "Nc1ccc(Oc2ccc(Cl)cc2)cc1", "class.name": "no"}
{"compound": "CC/C=C\\CCCCCO", "class.name": "no"}
{"compound": "CCCC1CCC(=O)CC1", "class.name": "no"}
{"compound": "COc1cc(S(=O)(=O)O)c(C)cc1N=Nc1c(O)ccc2cc(S(=O)(=O)O)ccc12", "class.name": "yes"}
{"compound": "CCC(CC)C(C)CCOC(C)=O (stereo not drawn)", "class.name": "no"}
{"compound": "O=C(/C=C/c1ccc(O)c(O)c1)O[C@@H](C(=O)O)[C@@H](OC(=O)/C=C/c1ccc(O)c(O)c1)C(=O)O", "class.name": "no"}
{"compound": "Cc1cc(C(C)(C)C)cc(C)c1CC1=NCCN1", "class.name": "no"}
{"compound": "CC1(C)CCC[C@]2(C)[C@H]3CCO[C@]3(C)CC[C@@H]12", "class.name": "no"}
{"compound": "O=C(O)c1cccc(C(F)(F)F)c1", "class.name": "no"}
{"compound": "CC(=O)CC(=O)Nc1ccc(S(=O)(=O)O)cc1", "class.name": "no"}
{"compound": "Cc1ccc(C(C)C)cc2c(C)ccc1-2", "class.name": "no"}
{"compound": "Cc1ccc(-c2ccccc2)cc1", "class.name": "no"}
{"compound": "S=C([S-])NCCNC(=S)[S-].S=C([S-])NCCNC(=S)[S-].[Mn+2].[Zn+2]", "class.name": "no"}
{"compound": "COc1ccc(-c2coc3cc(O)ccc3c2=O)cc1", "class.name": "no"}
{"compound": "CN(C)Cc1cc(C(C)(C)C)c(O)c(C(C)(C)C)c1", "class.name": "no"}
{"compound": "Cc1nc(-c2ccc(Cl)cc2)oc1COC(C)(C)C(=O)O", "class.name": "no"}
{"compound": "Clc1ccnc(Cl)n1", "class.name": "no"}
{"compound": "CCCCCCCCCCCCCC[N+](C)(C)Cc1ccccc1", "class.name": "yes"}
{"compound": "CC(C)NC[C@@H](O)COc1ccc(CC(N)=O)cc1", "class.name": "no"}
{"compound": "O=C(O)CCN(C1(C(=O)NO)CCCC1)S(=O)(=O)c1ccc(Oc2ccc(F)cc2)cc1", "class.name": "no"}
{"compound": "O=C1CCc2cc(OCCCCc3nnnn3C3CCCCC3)ccc2N1", "class.name": "no"}
{"compound": "NC(=S)NC(N)=S", "class.name": "no"}
{"compound": "NC(=O)c1cccc([N+](=O)[O-])c1", "class.name": "no"}
{"compound": "COC(=O)Nc1nc2ccc(C(=O)c3ccccc3)cc2[nH]1", "class.name": "no"}
{"compound": "CCc1cccc(CC)c1NC(=O)CN(CC(=O)O)CC(=O)O", "class.name": "no"}
{"compound": "CC(=O)[C@H]1CC[C@H]2[C@@H]3CCC4=CC(=O)CC[C@]4(C)[C@H]3CC[C@]12C", "class.name": "no"}
{"compound": "OC12N=C(c3ccccc3)SC1Cc1cc(Cl)ccc12 (stereo not drawn)", "class.name": "no"}
{"compound": "C=CC(=O)Nc1cc2c(Nc3ccc(F)c(Cl)c3)ncnc2cc1OCCCN1CCOCC1", "class.name": "yes"}
{"compound": "O=S(=O)(O)c1ccc(N=Nc2c(O)ccc3ccccc23)cc1", "class.name": "yes"}
{"compound": "O=c1[nH]c(=O)n([C@H]2C[C@H](O)[C@@H](CO)O2)cc1F", "class.name": "no"}
{"compound": "CCCCCCC1CCCC(=O)O1 (stereo not drawn)", "class.name": "no"}
{"compound": "CC1=CCC(=C(C)C)CC1", "class.name": "no"}
{"compound": "CC[N+](CC)(CC)CCOc1ccc(/C=C/c2ccccc2)cc1", "class.name": "no"}
{"compound": "CC(CCc1ccccc1)NCC(O)c1ccc(O)c(C(N)=O)c1 (stereo not drawn)", "class.name": "no"}
{"compound": "Cc1c(C)c([N+](=O)[O-])c(C(C)(C)C)c([N+](=O)[O-])c1C", "class.name": "no"}
{"compound": "COC(=O)c1ccccc1C", "class.name": "no"}
{"compound": "Clc1sc(Cl)c(Cl)c1Cl", "class.name": "no"}
{"compound": "CC(=O)Oc1cc2c(s1)CCN(C(C(=O)C1CC1)c1ccccc1F)C2 (stereo not drawn)", "class.name": "no"}
{"compound": "O=C1CCc2ccc(OCCCCN3CCN(c4cccc(Cl)c4Cl)CC3)cc2N1", "class.name": "no"}
{"compound": "O=[N+]([O-])c1ccc(F)c(Cl)c1", "class.name": "no"}
{"compound": "O=C(O)c1ccc2cc(C(=O)O)ccc2c1", "class.name": "no"}
{"compound": "CN(C)Cc1ccccc1O", "class.name": "no"}
{"compound": "O=[N+]([O-])c1ccc(O)cc1C(F)(F)F", "class.name": "yes"}
{"compound": "Nc1ccc(C(=O)O)c(O)c1", "class.name": "no"}
{"compound": "COC1=C(OC)C(=O)C(CCCCCCCCCCO)=C(C)C1=O", "class.name": "no"}
{"compound": "CN1CCN2c3ccccc3Cc3ccccc3C2C1 (stereo not drawn)", "class.name": "no"}
{"compound": "CCCNCCC", "class.name": "no"}
{"compound": "CC1(C)CCC[C@]2(C)[C@H]3CC(=O)O[C@]3(C)CC[C@@H]12", "class.name": "no"}
{"compound": "Nc1nc2c(ncn2COCCO)c(=O)[nH]1", "class.name": "no"}
{"compound": "[Cu+]", "class.name": "no"}
{"compound": "CC(C)CCCCCOC(=O)CCS", "class.name": "no"}
{"compound": "C=CCCC(=O)/C=C/C1C(C)=CCCC1(C)C (stereo not drawn)", "class.name": "no"}

* * *

- protocol.notes: qHTS assay to identify small molecule agonists of the estrogen receptor beta (ER-beta) signaling pathway - cell viability counter screen (AID 1259380); note: nearly all actives have a fitted effect of over 30% in size
- condition.summary: ER-beta-bla HEK293T viability, CellTiter-Glo luminescence, 16 h; series mostly up to 92.4 µM
Records with an inconclusive call do not appear. Activity calls are given as the source filed them. Calls follow the shape of the dose curve; as a rule, active = well fitted cell-killing curve with a large enough effect in the repeat runs; inconclusive = weak or mixed curves, or effect the other way; inactive = flat fitted curve, though single readings scatter.
Outcome codes: true for active, false for inactive

{"sample.smiles": "C=C(CC)C(=O)c1ccc(OCC(=O)O)c(Cl)c1Cl", "class.name": "true"}
{"sample.smiles": "CN1CCN(Cc2cc(-c3ccc4[nH]c(=O)oc4c3)co2)[C@@H](c2ccc(F)cc2)C1", "class.name": "true"}
{"sample.smiles": "CCC(C)[O-].CCC(C)[O-].CCOC(=O)/C=C(/C)[O-].[Al+3]", "class.name": "false"}
{"sample.smiles": "CCN(CC)C(=O)c1cc(S(=O)(=O)Cc2ccccc2)c(N2CCC(c3ccccc3)CC2)cc1N(CC)CCN(C)C", "class.name": "true"}
{"sample.smiles": "CC[C@H](C)COC(=O)/C=C/c1ccc(N=Cc2ccc(OC)cc2)cc1", "class.name": "true"}
{"sample.smiles": "O=c1c(O)c(-c2ccc(O)cc2O)oc2cc(O)cc(O)c12", "class.name": "false"}
{"sample.smiles": "Nc1nc(N)nc(-c2cc(Cl)ccc2Cl)n1", "class.name": "false"}
{"sample.smiles": "CC(C)(C)C1CCC(=O)CC1", "class.name": "false"}
{"sample.smiles": "c1ccsc1", "class.name": "false"}
{"sample.smiles": "CN(C)Cc1ccccc1O", "class.name": "false"}
{"sample.smiles": "COCCOc1cc2cc(C(=O)NC3CCN(C(C)C)CC3)n(CC(=O)Nc3ccc(Cl)cn3)c2cn1", "class.name": "false"}

* * *

- protocol.notes: qHTS assay to identify small molecule antagonists of the thyroid receptor (TR) signaling pathway (AID 743065); note: nearly all actives have a fitted effect of over 55% in size
- condition.summary: GH3.TRE-Luc, T3-stimulated luciferase inhibition, 23.5 h; series mostly up to 70.3 µM
Records with an inconclusive call do not appear. Active and inactive are the calls of the source. The call rests on the fitted dose curve; in most records, active means well fitted inhibition curve with a large enough effect in the repeat runs; inconclusive means weak or mixed curves; inactive means no such curve, though single readings can be large or run the other way.
Outcome codes: Y for active, N for inactive

{"compound": "COc1c(C)c2c(c(O)c1C/C=C(\\C)CCC(=O)OCCN1CCOCC1)C(=O)OC2", "class.name": "Y"}
{"compound": "CCCCOC(=O)CC", "class.name": "N"}
{"compound": "O=c1[nH]c2ccccc2n1CCCN1CCN(C(c2ccccc2)c2ccccc2)CC1", "class.name": "Y"}
{"compound": "NC[C@H]1O[C@H](O[C@H]2[C@H](O[C@@H]3O[C@H](CO)[C@@H](O)[C@H]3O)C(O)[C@H](N)C[C@@H]2N)[C@H](N)[C@@H](O)[C@@H]1O (stereo not given in full)", "class.name": "N"}
{"compound": "CCC(C)(CCC(C)C)C(=O)[O][Sn]([CH3])([CH3])[O]C(=O)C(C)(CC)CCC(C)C (stereo not given)", "class.name": "Y"}
